# targetDesc: Inhibitor of nuclear factor kappa-B kinase subunit beta (Homo sapiens, UniProt O14920)
# Sequence (O14920 whole entry, the tested form may be a part): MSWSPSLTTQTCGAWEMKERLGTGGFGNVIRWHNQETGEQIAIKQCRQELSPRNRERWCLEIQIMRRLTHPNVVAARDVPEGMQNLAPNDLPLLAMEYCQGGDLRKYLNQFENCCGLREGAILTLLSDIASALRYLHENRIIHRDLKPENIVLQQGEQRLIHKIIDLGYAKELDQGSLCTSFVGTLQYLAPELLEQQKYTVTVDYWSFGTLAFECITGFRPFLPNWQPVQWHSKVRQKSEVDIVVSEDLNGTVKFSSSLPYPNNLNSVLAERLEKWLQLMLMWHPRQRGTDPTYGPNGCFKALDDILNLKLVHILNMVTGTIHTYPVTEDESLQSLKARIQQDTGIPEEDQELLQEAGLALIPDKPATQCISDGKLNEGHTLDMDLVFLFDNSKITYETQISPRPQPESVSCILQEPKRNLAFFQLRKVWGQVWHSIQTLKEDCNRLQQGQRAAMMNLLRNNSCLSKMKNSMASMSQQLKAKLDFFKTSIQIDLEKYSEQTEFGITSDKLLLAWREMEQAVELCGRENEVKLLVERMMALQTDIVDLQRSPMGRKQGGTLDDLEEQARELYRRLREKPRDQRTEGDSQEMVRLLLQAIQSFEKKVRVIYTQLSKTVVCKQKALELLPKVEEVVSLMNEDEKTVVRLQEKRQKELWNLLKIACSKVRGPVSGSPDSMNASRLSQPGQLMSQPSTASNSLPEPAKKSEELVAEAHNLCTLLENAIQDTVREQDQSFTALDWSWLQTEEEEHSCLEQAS
# test: Inhibition of IKK2-mediated phosphorylation of GST-IkappaBalpha fusion protein afterr 60 mins by fluorescence polarization assay
Consider the cut-off 30 nM. If the recorded IC50 is strictly smaller, the label is yes (1); if not, the label is no (0).

Cn1cnc2c(NCCNCCO)nc3sc(-c4ccc(F)cc4)nc3c21 = no (0)
CNc1nc2sc(S(C)(=O)=O)nc2c2c1ncn2C = no (0)
CNc1nc2sc(-c3ccc(F)c(CNS(C)(=O)=O)c3)nc2c2c1ncn2C = no (0)

Now for another entry.
Please determine if `CNc1nc2sc(N3CC=CCC3)nc2c2c1ncn2C` is below 30 nM in terms of IC50.
no (0)

Where do the numbers come from? From ChEMBL document CHEMBL1153345.
